- measured-target: RocR (Pseudomonas aeruginosa, UniProt Q9HX69)
- Sequence (Q9HX69 whole entry): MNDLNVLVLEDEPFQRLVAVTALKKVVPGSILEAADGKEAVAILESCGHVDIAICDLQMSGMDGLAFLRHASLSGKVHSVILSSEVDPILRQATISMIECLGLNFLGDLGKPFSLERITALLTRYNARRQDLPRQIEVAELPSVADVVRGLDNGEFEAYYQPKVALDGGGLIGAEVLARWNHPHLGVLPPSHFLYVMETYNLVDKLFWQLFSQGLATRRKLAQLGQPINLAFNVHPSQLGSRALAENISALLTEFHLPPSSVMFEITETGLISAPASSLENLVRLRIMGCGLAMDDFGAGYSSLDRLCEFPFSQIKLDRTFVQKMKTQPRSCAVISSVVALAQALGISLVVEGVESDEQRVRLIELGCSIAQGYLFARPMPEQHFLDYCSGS
- test-details: RocR intrinsic fluorescence change (Kd […] by two fits); also non-competitive enzyme inhibition, Ki […]
endpoint-label: Kd (µM)
Give the value in µM but do not write µM after it.

Check the records and state Kd for "O=C(CCCn1sc2ccccc2c1=O)Nc1ccc(O)cc1"
14

Attribution: paper PMC6024209
